Target: Phosphatidylinositol 4,5-bisphosphate 3-kinase catalytic subunit beta isoform (Homo sapiens, UniProt P42338)
Sequence (P42338 whole entry, canonical isoform): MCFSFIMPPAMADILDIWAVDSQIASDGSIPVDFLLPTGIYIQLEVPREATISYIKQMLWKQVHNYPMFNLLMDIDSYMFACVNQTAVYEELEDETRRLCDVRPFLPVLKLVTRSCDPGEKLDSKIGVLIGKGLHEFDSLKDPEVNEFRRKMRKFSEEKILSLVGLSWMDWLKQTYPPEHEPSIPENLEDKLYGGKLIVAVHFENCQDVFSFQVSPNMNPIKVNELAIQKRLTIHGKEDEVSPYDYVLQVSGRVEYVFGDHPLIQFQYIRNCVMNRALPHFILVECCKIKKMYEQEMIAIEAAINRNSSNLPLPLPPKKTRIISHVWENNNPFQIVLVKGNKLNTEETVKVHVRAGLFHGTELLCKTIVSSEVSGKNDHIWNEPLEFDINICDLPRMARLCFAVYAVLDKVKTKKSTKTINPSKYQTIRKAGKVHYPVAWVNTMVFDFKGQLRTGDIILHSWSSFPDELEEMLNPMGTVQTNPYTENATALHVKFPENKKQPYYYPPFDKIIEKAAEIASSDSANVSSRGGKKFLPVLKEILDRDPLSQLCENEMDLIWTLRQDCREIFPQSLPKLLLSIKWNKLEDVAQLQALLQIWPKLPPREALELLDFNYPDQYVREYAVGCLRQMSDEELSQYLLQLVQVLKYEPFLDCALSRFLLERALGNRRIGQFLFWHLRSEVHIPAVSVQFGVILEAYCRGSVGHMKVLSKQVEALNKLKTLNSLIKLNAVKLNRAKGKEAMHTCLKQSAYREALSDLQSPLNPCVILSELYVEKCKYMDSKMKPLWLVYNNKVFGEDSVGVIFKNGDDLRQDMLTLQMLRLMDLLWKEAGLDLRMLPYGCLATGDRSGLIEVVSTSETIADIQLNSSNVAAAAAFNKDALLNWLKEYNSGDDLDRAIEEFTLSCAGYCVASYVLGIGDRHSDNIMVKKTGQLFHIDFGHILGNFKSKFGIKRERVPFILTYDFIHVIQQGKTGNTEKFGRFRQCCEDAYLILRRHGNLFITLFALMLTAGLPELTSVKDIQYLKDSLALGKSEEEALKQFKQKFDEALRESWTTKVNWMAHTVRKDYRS
Assay: Inhibition of human recombinant PI3Kbeta expressed in baculovirus-infected Sf21 cells
pIC50: −log10 of the molar value.
pIC50 values for the compounds below.

COc1nc(-c2ccccc2)ccc1-c1noc(-c2ccncc2)n1    < 4.00
COC(=O)c1ccc(CSc2ncnc3sc(C)c(C)c23)o1    < 4.00

**Query** What value of pIC50 has been recorded for this entry: Cc1ccc2cc3c(OC(=O)COc4ccccc4)nn(C)c3nc2c1
**Result** < 4.00
